Data origin: patent US20190218226A1

Recorded GI50 by entry
test system: MCF-7; assay: NCI60 antiproliferative screen, breast MCF-7; format: cell-based, human; conditions: MCF-7, 48 h, sulforhodamine B; read-out: Cytotoxicity (GI50) breast MCF-7
# number only, unit nM dropped from output

Example molecules with recorded GI50:
>  <smilesData>
COc1cc2c3c(n(CCCN4CCOCC4)c(=O)c2cc1OC(=O)c1ccccc1)-c1cc2c(cc1C3=O)OCO2

>  <observedMeasurement>
15

$$$$
>  <smilesData>
COc1cc2c(=O)n(CCCN3CCOCC3)c3c(c2cc1OC(=O)c1ccccc1)C(=O)c1cc2c(cc1-3)OCO2

>  <observedMeasurement>
33

$$$$

Turning now to a further record.
Fill blank: measured GI50 of the molecule COc1cc2c3c(n(CCCN4CCOCC4)c(=O)c2cc1OS(=O)(=O)O)-c1cc2c(cc1C3=O)OCO2 is ____.
209

---

Below, each entry is listed with its recorded GI50.
test system: SN12C; test: NCI60 antiproliferative screen, renal SN12C; format: cell-based, human; details: 48 h, sulforhodamine B, read-out: Cytotoxicity (GI50) renal SN12C
Number in nM, nothing else.

Example entries and their recorded answers appear below.
>  <compound>
COc1cc2c3c(n(CCCN4CCOCC4)c(=O)c2cc1OS(=O)(=O)O)-c1cc2c(cc1C3=O)OCO2 [Compound 20]

>  <GI50 [nM]>
355

$$$$
>  <compound>
COc1cc2c3c(n(CCCN4CCOCC4)c(=O)c2cc1OC(=O)c1ccccc1)-c1cc2c(cc1C3=O)OCO2 [Compound 18]

>  <GI50 [nM]>
195

$$$$

Requested read-out: GI50. Entry: COc1cc2c(=O)n(CCCN3CCOCC3)c3c(c2cc1OC(=O)c1ccccc1)C(=O)c1cc2c(cc1-3)OCO2 [Compound 13]
54

---

Quick reference for GI50 among some compounds
system: DU-145; assay: NCI60 antiproliferative screen, prostate DU-145; type: cell-based, human; settings: DU-145, 48 h, sulforhodamine B; read-out: Cytotoxicity (GI50) prostate DU-145

>  <smilesData>
COC(=O)CCC(=O)Oc1cc2c(=O)n(CCCN3CCOCC3)c3c(c2cc1OC)C(=O)c1cc2c(cc1-3)OCO2

>  <GI50>
14 nM

$$$$
>  <smilesData>
COc1cc2c3c(n(CCCN4CCOCC4)c(=O)c2cc1OC(C)=O)-c1cc2c(cc1C3=O)OCO2

>  <GI50>
< 10 nM

$$$$

Now for another entry.
Entry under review: COC(=O)CCC(=O)Oc1cc2c3c(n(CCCN4CCOCC4)c(=O)c2cc1OC)-c1cc2c(cc1C3=O)OCO2 . Reported GI50?
< 10 nM

---

Examples of molecules with documented GI50 follow.
system: SN12C; assay: NCI60 antiproliferative screen, renal SN12C; assay type: cell-based, human; details: Homo sapiens, 48 h, sulforhodamine B, read-out: Cytotoxicity (GI50) renal SN12C
Please state the figure in nM; there is no need to write the unit.

The cases that follow already have their GI50 on record.
>  <smilesData>
COc1cc2c(=O)n(CCCN3CCOCC3)c3c(c2cc1OC(=O)N(C)C)C(=O)c1cc2c(cc1-3)OCO2

>  <GI50, nM>
2400

$$$$
>  <smilesData>
COc1cc2c3c(n(CCCN4CCOCC4)c(=O)c2cc1OC(=O)N(C)C)-c1cc2c(cc1C3=O)OCO2

>  <GI50, nM>
25

$$$$

Now look at this one.
Item under review: COc1cc2c(=O)n(CCCN3CCOCC3)c3c(c2cc1O)C(=O)c1cc2c(cc1-3)OCO2 . Reported GI50?
195
